Recorded melting point by entry
Numeric answer only, unit °C assumed.

A selection of reference data follows.
                      smiles_representation  measurement_name  test_value
0                                     FCCCl     melting point         -50
1                     Cc1ccc(C(=O)CCCCl)cc1     melting point        31.5
2                    CNC(=O)Oc1cc(C)cc(C)c1     melting point          99
3  CC(C)OC(=O)C1=C(C(=O)O)C2c3ccccc3C1c1ccccc12     melting point         176
4  O=C(O)C(F)(F)C(F)(F)C(F)(F)C(F)(F)C(F)(F)C(F)(F)C(F)(F)C(F)(F)F     melting point          65

**Query** Which melting point is reported for this compound? `c1c2c(cc3c1CC3)CC2`
**Result** 101

**Query** What value of melting point has been reported for the following compound? `C[Si](C)(C)c1cnc([Si](C)(C)C)s1`
**Result** 55

**Query** Name the reported melting point value associated with the compound `O=C(CBr)OCc1ccc([N+](=O)[O-])cc1`
**Result** 50

**Query** Tell me the measured melting point of `Nc1nnc(Sc2ncccc2[N+](=O)[O-])s1` , please.
**Result** 216

**Query** Can you look up the measured melting point of `Cc1ccc(S(=O)(=O)N2CCCN(S(=O)(=O)c3ccc(C)cc3)CCN(S(=O)(=O)c3ccc(C)cc3)CCC2)cc1` for me?
**Result** 238

Where do these numbers come from? They come from a melting point compilation (Tetko et al.).
